Each item that follows carries a reported Ki.
- TARGET_DESC: UniProtKB P41145
- MEASUREMENT_NOTES: κ-opioid receptor radioligand dose-displacement binding assay ([3H]-U69,593)
- RUN_CONDITIONS: binding affinity, recombinant κ opioid receptor expressed in HEK 293 cells; read-out: Ki (nM) Opioid Receptor κ
Entry rule: numbers only, all in nM.

Completed entries (count: 3):
>  <COMPOUND>
O=C(O)/C=C1\[C@H]2Cc3ccc(O)cc3[C@]1(CCCC(=O)O)CCN2CC1CC1 [Compound 13]

>  <Ki (nM)>
66.8

$$$$
>  <COMPOUND>
COc1ccc2c(c1)[C@]1(CC(N)=O)CCN(CC3CC3)[C@H](C2)[C@@H]1CO [Compound 22]

>  <Ki (nM)>
79.1

$$$$
>  <COMPOUND>
O=C(O)CCC[C@]12CCN(CC3CC3)[C@H](Cc3ccc(O)cc31)[C@@H]2CC(=O)O [Compound 10]

>  <Ki (nM)>
64.5

$$$$

Next up:
Can you look up the measured Ki of CN(C)C(=O)CCC[C@]12CCN(CC3CC3)[C@H](Cc3ccc(O)cc31)/C2=C\C(=O)O [Compound 12] for me? 42.5

###

- TARGET_DESC: μ-opioid receptor (Homo sapiens (Human))
- MEASUREMENT_NOTES: μ-opioid receptor [35S]GTPγS functional assay
- Assay type: biochemical
pEC50: −log10 of the molar value.
ENDPOINT: pEC50

Look up pEC50 for this molecule: COc1ccc2c(c1)[C@]1(CCO)CCN(CC3CC3)[C@H](C2)[C@@H]1CO < 4.70

###

As shown below, each of these compounds has a reported pEC50 value.
- TARGET_DESC: μ-opioid receptor (Homo sapiens (Human))
- MEASUREMENT_NOTES: μ-opioid receptor [35S]GTPγS functional assay
- Type: biochemical
- RUN_CONDITIONS: μ GTP EC50; read-out: GTPγS μ EC50
- Method: μ-Opioid Receptor Functional Assay Procedures: [^35S]GTPγS functional assays were conducted using freshly thawed μ-receptor membranes (Perkin Elmer, Shelton, Conn.). […] Filter plates were subsequently dried at 50° C. for 2-3 hr, BetaScint scintillation cocktail (Perkin Elmer, Shelton, Conn.) was added (50 μl/well) and plates were counted using a Packard Top-Count for […]. Data were analyzed using the sigmoidal dose-response curve fitting functions in GraphPad PRISM™; v. […]
# pEC50 = -log10(concentration in molar units)

Here's what some known entries look like.
>  <ENTRY_SMILES>
COc1ccc2c(c1)[C@]1(CC(N)=O)CCN(CC3CC3)[C@H](C2)[C@@H]1CO

>  <ENDPOINT>
pEC50

>  <NUMERIC_READOUT>
5.89

$$$$
>  <ENTRY_SMILES>
O=C(O)CCC[C@]12CCN(CC3CC3)[C@H](Cc3ccc(O)cc31)[C@@H]2CC(=O)O

>  <ENDPOINT>
pEC50

>  <NUMERIC_READOUT>
7.15

$$$$
>  <ENTRY_SMILES>
CN(C)C(=O)CCC[C@]12CCN(CC3CC3)[C@H](Cc3ccc(O)cc31)/C2=C\C(=O)O

>  <ENDPOINT>
pEC50

>  <NUMERIC_READOUT>
6.38

$$$$

Lab note: need pEC50 for O=C(O)/C=C1\[C@H]2Cc3ccc(O)cc3[C@]1(CCCC(=O)O)CCN2CC1CC1 on μ-opioid receptor (Homo sapiens (Human)), anyone have it? 6.13
